Protocol: Pharmacokinetic study in normal and arthritic model rats after oral administration of APR extract (UPLC-MS/MS of plasma)
Study Conditions: Sprague-Dawley, rat, plasma, po, 4.1 mL/kg, MRT0-t, arthritic model rats (complete Freund's adjuvant), oral APR extract 4.1 mL/kg, mean ± SD, n = 6
Reported Metric: MRT last (h)
Reply with just the number (in h).

Reference set (3 entries):
1) COc1ccc2ccc(=O)oc2c1CC=C(C)C :: 6.94
2) O=C(/C=C/c1ccc(O)c(O)c1)O[C@H]1[C@H](O)C[C@](O)(C(=O)O)C[C@H]1O :: 19.5
3) O=c1ccc2cc3ccoc3cc2o1 :: 12.9

INPUT: Can you share its MRT last? I mean this molecule: COc1c2ccoc2cc2oc(=O)ccc12
OUTPUT: 7.11

----------
Protocol: Pharmacokinetic study in normal and arthritic model rats after oral administration of APR extract (UPLC-MS/MS of plasma)
Study Conditions: model vs normal rats, oral APR
Reported Metric: change of AUC0-t in model rats compared with normal rats

Reference set (4 entries):
1. O=C(/C=C/c1ccc(O)c(O)c1)O[C@@H]1C[C@](O)(C(=O)O)C[C@@H](O)[C@H]1O :: increased
2. O=C(/C=C/c1ccc(O)c(O)c1)O[C@H]1[C@H](O)C[C@](O)(C(=O)O)C[C@H]1O :: increased
3. O=C(C=Cc1ccc(O)c(O)c1)OC1CC(O)(C(=O)O)CC(OC(=O)C=Cc2ccc(O)c(O)c2)C1O (centres unmarked) :: decreased
4. CC(C)(O)[C@@H]1Cc2c(ccc3ccc(=O)oc23)O1 :: decreased

INPUT: Can you share its change of AUC0-t in model rats compared with normal rats? I mean this compound: O=C(/C=C/c1ccc(O)c(O)c1)O[C@@H]1[C@H](O)C[C@@](O)(C(=O)O)C[C@H]1OC(=O)/C=C/c1ccc(O)c(O)c1
OUTPUT: decreased

----------
Protocol: Pharmacokinetic study in normal and arthritic model rats after oral administration of APR extract (UPLC-MS/MS of plasma)
Study Conditions: model vs normal rats, oral APR
Protocol: One hundred grams of the APR sample was extracted by reflux with 800 mL 50% ethanol/water (v/v) for 3 times (2 hours each time), then combined with the filtrate and concentrated under vacuum with heat, and the concentration of APR extract was 0.37 g/mL. All the sample solutions were stored at 4°C before analysis. Twelve SD rats were randomly divided into two groups (n = 6) and named as the model group and the normal group, respectively. […]
Reported Metric: change of MRT in model rats compared with normal rats

Reference set (4 entries):
1) O=C(/C=C/c1ccc(O)c(O)c1)O[C@@H]1C[C@](O)(C(=O)O)C[C@@H](O)[C@H]1O :: longer
2) COc1c2ccoc2cc2oc(=O)ccc12 :: shortened
3) O=C(/C=C/c1ccc(O)c(O)c1)O[C@H]1[C@H](O)C[C@](O)(C(=O)O)C[C@H]1O :: longer
4) CC(C)(O)[C@@H]1Cc2c(ccc3ccc(=O)oc23)O1 :: shortened

Turning to the following compound.
INPUT: Can you share its change of MRT in model rats compared with normal rats? I mean this compound: O=c1ccc2cc3ccoc3cc2o1
OUTPUT: shortened

----------
Protocol: Pharmacokinetic study in normal and arthritic model rats after oral administration of APR extract (UPLC-MS/MS of plasma)
Study Conditions: Sprague-Dawley, rat, plasma, po, 4.1 mL/kg, t max, normal rats, oral APR extract 4.1 mL/kg, mean ± SD, n = 6
Reported Metric: Tmax (min)
Reply with just the number (in min).

Reference set (3 entries):
1. COc1ccc2ccc(=O)oc2c1CC=C(C)C :: 69.6
2. CC(C)=CCOc1c2ccoc2cc2oc(=O)ccc12 :: 34.8
3. O=C(C=Cc1ccc(O)c(O)c1)OC1CC(O)(C(=O)O)CC(OC(=O)C=Cc2ccc(O)c(O)c2)C1O (stereo not shown) :: 10.8

Turning to the following compound.
INPUT: Can you share its Tmax? I mean this compound: O=C(/C=C/c1ccc(O)c(O)c1)O[C@@H]1C[C@](O)(C(=O)O)C[C@@H](O)[C@H]1O
OUTPUT: 32.4

The reported numbers originate from paper PMC9398717.
